Test: yeast display, Sf9 membrane polyspecificity reagent, FACS + sequencing; frameworks hold sequencing errors
METRIC NAME: polyreactivity (PSR sort gate)

Consider the reported polyreactivity (PSR sort gate) for these sequences:
# RESIDUE CODES, OBSERVED MEASUREMENT
records = [
    ("QVQLVESGRGLVQAGGSLRLSCAASGIIFAQNAMGWYRQAPGKEMVLVAAISLDGGSTNYADSVKGRFTISRDNAKNTVYLQMNSLKPEDTAVYYCAADDGWIEPVYGYYEHEYWGQGTQVTVSS", "low polyreactivity"),
    ("QVQLVESGGGLVQAGGSLRLSSAASGNIFYGYAIGWYRQAPGKERELVARINWSGTRTYYADSVKGRFTISRDNAKNTVYLQMNSLKPEDTAVYYCAADRYRKYYRRYYYWGQGTQVTVSS", "high polyreactivity"),
    ("KVQLVESGGGLVQAGGSLRLSCAASGRTFLRYAMGWYRQAPGKERELVAAISTSGGSTYYADSVKGRFTISRDNAKNTVYLQMNSLKPEDTAVYYCAATSTSYTYTHSYGYWGQGTQVTVSS", "low polyreactivity"),
    ("QVQLVESGGGLVQAGGSLRLSCAAYGLIFPVYAMGWYRQAPGKEREFVASIWRGGTTYYADSVKGRFTISRDNAKNTVYLQMNRLKPEDTAVYYCAARYYPRGLVFPFTKYDYWGQGTQVTVSS", "high polyreactivity"),
    ("QVQLVESGGGLVQAGGSLRLSCAASGLTFYGYGMGWYRQAPGKERELVASITSGGNTYYADSVKGRFTISRDNAKNTVYLRMNSLKPEDTAVYYCAVTAIALYYSSGYYWGQGTQVTVSS", "low polyreactivity"),
    ("QVQLVESGGGLVQAGGSLRLSCAASGSIFYAYVMGWYRQAPGKERELVAAISSRGGSTHYADSVKGRFTISRDNAKNTVYLQMNSLKPEDTAVYYCAAARGKDGYWGQGTQVTVSS", "high polyreactivity"),
    ("QVQVVESGGGLVQAGGSLRLSCAASGLTYSYYTMGWYRQAPGKERELVAAITSSSGRTYYADSVKGRITISRDNAKNTVYLQMNSLKPEDTAVYYCAARWSPYDYWGQGTQVTVSS", "low polyreactivity"),
    ("QVQLVESGGGLVQAGGSLRLSCAASGSTSRLYAMGWYSQAPGKERELVAAIRYSSGTTYYADSVTVRFTISRDNAKNTVYLQMNSLKPEDTAVYYCAAVTIRRYGPAEYNYWGQGTQVTVSS", "high polyreactivity"),
    ("QVQLVESGGGLVQAGGSLSLSCAASGRIFVSYAMGWYRQAPGKERELVAAISYSGGSTYYADSVKGRFTISRDNAKNTVYLQMNSLKPEDTAVYYCAKDGGVYAPAGDDDYWGQGTQVTVSS", "low polyreactivity"),
    ("QVQLVESGGGLVQAGGSLRLSCAASGSIFLSNPMGWYRQAPGKERELVAAITSGGRTTYADSVKGRFTISRDNAKNTVYLQMNSLKPEDTAVYYCAARQRWYWRGYDYWGQGTQVTVSS", "high polyreactivity"),
]

Inquiry: What measured polyreactivity (PSR sort gate) goes with "QVQLVESGGGLVQAGGSLRLSCAASGRTFVGYTMGWYRQAPGKERELVAAIDLSDGSTSYADSVKGRFTISRDNAKNTVYLQMNSLKPEDTAVYYCAKSWANVYAGAHDYWGQGTQVTVSS" ?
Reply text: low polyreactivity
